We begin with a simple list: items and their reported pKi.
MEASURED_ON: UniProt:P04150
Sequence (P04150 whole entry): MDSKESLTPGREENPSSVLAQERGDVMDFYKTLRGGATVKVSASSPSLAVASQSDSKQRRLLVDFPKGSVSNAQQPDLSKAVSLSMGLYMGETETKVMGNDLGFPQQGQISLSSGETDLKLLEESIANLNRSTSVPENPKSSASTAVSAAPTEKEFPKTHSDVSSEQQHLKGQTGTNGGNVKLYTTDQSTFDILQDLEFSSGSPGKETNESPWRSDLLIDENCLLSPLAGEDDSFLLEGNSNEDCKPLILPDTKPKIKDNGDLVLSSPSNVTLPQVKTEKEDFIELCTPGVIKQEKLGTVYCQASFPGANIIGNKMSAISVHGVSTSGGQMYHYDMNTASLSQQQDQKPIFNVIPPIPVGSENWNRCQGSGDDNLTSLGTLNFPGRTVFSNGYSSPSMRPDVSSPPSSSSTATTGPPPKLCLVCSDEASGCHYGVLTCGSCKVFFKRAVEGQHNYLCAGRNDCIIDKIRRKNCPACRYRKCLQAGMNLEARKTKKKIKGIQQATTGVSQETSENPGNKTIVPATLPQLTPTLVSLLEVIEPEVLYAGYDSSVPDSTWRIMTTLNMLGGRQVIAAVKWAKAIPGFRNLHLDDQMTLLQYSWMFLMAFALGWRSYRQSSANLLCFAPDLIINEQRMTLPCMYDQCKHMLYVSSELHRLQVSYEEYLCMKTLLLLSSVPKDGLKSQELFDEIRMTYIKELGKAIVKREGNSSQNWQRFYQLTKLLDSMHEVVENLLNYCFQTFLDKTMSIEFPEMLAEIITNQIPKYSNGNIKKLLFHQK
PROTOCOL: Glucocorticoid binding assay ([3H]dexamethasone displacement, GR lysate)
DETAILS: baculovirus-expressed GR lysate from Sf21 cells; 2-4 nM [3H]dexamethasone; 16 hours at 4° C.; Cheng-Prusoff from IC50
pKi: −log10 of the molar value.
ENDPOINT_LABEL: pKi

INSERT INTO assay_data (compound, quantitative_result) VALUES
  ('Cc1cc(-c2cccc(C#N)c2C)c(Cl)c2c1NC(C)(C)CC2C (racemic) [Compound 155]', 8.85),
  ('Cc1cc(-c2cccc3c2CCC3=NO)c(Cl)c2c1NC(C)(C)CC2C (racemic) [Compound 154]', 9.40),
  ('Cc1cc(-c2ccccc2[N+](=O)[O-])c(Cl)c2c1NC(C)(C)CC2C (racemic) [Compound 122]', 7.11),
  ('COc1c(C#N)cccc1-c1cc(C)c2c(c1Cl)C(C)C(=O)C(C)(C)N2 (racemic) [Compound 179]', 8.59),
  ('COc1c(C#N)cccc1-c1cc(C)c2c(c1Cl)C(C)C(O)C(C)(C)N2 (racemic) [Compound 191]', 8.32),
  ('COc1c(-c2cc(C)c3c(c2Cl)C(C)CC(C)(C)N3)cccc1[N+](=O)[O-] (racemic) [Compound 156]', 8.54),
  ('COc1c(C#N)cccc1-c1cc(C)c2c(c1Cl)C(C)C(O)C(C)(C)N2 (racemic) [Compound 165]', 8.57),
  ('Cc1cc(-c2c(C)noc2C)c(Cl)c2c1NC(C)(C)C(O)C2C (racemic) [Compound 192]', 8.03),
  ('Cc1cc(-c2csc3ccccc23)c(Cl)c2c1NC(C)(C)C(O)C2C (racemic) [Compound 194]', 7.89),
  ('Cc1cc(-c2cccc3c2OCC(=O)N3)c(Cl)c2c1NC(C)(C)CC2C (racemic) [Compound 204]', 7.59),
  ('Cc1cc(-c2c(C)noc2C)c(Cl)c2c1NC(C)(C)C(O)C2C (racemic) [Compound 164]', 8.48),
  ('Cc1cc(-c2cccc3c2NCC3)c(Cl)c2c1NC(C)(C)CC2C (racemic) [Compound 210]', 8.24),
  ('COc1c(O)cccc1-c1cc(C)c2c(c1Cl)C(C)CC(C)(C)N2 (racemic) [Compound 151]', 8.44),
  ('Cc1cc(-c2ccccc2Cl)c(Cl)c2c1NC(C)(C)CC2C (racemic) [Compound 118]', 7.66),
  ('COc1ccc(Cl)cc1-c1cc(C)c2c(c1Cl)C(C)CC(C)(C)N2 (racemic) [Compound 121]', 7.85),
  ('Cc1cc(-c2cccc3ccccc23)c(Cl)c2c1NC(C)(C)CC2(C)O (racemic) [Compound 215]', 8.23);

Attribution: patent US20070254917A1
